Molecular target: human PI3Kα protein (Homo sapiens, UniProt P42336)
Construct: purchased Carna Biosciences, Inc; host or cells: baculovirus expression system
Sequence (P42336 whole entry): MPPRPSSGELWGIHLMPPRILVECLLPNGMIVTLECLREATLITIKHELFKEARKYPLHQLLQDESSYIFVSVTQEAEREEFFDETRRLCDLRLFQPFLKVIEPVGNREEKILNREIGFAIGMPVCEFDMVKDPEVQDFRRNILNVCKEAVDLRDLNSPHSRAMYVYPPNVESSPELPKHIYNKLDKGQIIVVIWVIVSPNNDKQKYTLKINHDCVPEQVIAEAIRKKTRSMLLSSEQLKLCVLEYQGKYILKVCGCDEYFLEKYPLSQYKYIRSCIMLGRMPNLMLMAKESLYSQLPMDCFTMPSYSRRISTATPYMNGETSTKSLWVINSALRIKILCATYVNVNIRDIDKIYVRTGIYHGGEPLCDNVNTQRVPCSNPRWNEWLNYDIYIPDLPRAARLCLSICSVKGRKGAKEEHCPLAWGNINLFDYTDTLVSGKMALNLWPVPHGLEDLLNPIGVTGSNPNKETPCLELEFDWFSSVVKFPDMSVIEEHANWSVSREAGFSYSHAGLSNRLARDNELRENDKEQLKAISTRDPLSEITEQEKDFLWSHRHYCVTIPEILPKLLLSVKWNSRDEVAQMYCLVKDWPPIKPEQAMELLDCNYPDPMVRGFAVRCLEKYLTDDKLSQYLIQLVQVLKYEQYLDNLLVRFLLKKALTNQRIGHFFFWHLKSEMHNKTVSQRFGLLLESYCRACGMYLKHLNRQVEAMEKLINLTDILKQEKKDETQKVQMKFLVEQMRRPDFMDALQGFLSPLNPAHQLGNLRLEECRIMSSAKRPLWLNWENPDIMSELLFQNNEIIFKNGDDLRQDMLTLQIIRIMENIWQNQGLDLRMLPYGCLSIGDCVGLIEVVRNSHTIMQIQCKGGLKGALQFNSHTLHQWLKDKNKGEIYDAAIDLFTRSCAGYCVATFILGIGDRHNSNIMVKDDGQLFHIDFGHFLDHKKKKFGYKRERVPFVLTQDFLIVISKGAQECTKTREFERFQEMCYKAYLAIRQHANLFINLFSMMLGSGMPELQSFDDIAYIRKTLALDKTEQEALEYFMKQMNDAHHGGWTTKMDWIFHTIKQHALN
Sequence (P27986 whole entry partner): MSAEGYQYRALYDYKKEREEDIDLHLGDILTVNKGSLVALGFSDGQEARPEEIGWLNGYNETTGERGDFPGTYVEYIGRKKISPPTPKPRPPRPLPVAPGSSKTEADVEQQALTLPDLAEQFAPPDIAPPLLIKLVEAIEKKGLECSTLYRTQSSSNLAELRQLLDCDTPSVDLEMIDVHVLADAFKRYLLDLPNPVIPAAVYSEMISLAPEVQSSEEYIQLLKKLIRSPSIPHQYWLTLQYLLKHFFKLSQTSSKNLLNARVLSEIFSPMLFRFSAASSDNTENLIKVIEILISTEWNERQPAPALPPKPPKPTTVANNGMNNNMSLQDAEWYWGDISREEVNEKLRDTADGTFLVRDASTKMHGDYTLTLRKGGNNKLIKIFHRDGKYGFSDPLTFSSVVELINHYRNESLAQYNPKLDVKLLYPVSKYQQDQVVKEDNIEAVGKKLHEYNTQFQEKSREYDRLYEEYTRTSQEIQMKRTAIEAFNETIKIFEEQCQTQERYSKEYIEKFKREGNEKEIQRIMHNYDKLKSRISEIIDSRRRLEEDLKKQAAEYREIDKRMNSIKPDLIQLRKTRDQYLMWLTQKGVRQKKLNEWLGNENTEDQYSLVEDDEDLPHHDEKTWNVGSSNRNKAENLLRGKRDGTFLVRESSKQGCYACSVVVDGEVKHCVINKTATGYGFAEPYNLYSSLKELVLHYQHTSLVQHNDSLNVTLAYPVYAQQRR
Assay: PI3Kα enzyme assay (ADP-Glo)
Type: biochemical
Conditions: read-out: PI3Kα enzyme inhibitory activity
measuredAttribute: IC50

The examples below pair each entry with its known result.
| smilesEntry | IC50 |
| --- | --- |
| COC[C@@H]1CCCN1c1cnc2ccc(Nc3cc(C(C)C)cnn3)nc2c1 | < 1 µM |
| CC(C)c1cnnc(Nc2ccc3ncc(-c4cnn(CC5CN(C)C5)c4)cc3n2)c1 | < 1 µM |
| Cc1cc(Nc2ccc3ncc(-c4cnn(C)c4)cc3n2)n[nH]1 | 1 to 10 µM |

// for each compound in input: emit IC50
1. CC(=O)N(C)c1cnc2ccc(Nc3cc(C(C)C)cnn3)nc2c1
2. CC(C)c1cnnc(Nc2ccc3ncc(NC(=O)COCc4ccccc4)cc3n2)c1
3. CC(C)c1cnnc(Nc2ccc3ncc(N4CC(OCC5CC5)C4)cc3n2)c1
4. CC(C)c1cnnc(Nc2ccc3ncc(-c4ccc(O)nc4)cc3n2)c1
5. CCCN(CCC)c1cnnc(Nc2ccc3ncc(-c4cnn(C)c4)cc3n2)c1
6. CC(C)c1cnnc(Nc2ccc3ncc(-c4cnn(C[C@H]5CCC(=O)N5)c4)cc3n2)c1

# output
10 to 50 µM
< 1 µM
1 to 10 µM
< 1 µM
< 1 µM
< 1 µM
